Molecular target: Steroid 5-alpha-reductase (Rattus norvegicus, UniProt P24008+P31214)
Sequence (P24008 whole entry): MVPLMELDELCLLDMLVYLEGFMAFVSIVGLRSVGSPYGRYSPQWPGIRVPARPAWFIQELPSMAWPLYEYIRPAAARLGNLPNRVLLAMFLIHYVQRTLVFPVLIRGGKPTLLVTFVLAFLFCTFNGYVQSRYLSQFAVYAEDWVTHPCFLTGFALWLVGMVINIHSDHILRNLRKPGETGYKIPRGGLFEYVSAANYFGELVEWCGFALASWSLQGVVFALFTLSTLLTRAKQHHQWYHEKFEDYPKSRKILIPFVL
Sequence (P31214 whole entry): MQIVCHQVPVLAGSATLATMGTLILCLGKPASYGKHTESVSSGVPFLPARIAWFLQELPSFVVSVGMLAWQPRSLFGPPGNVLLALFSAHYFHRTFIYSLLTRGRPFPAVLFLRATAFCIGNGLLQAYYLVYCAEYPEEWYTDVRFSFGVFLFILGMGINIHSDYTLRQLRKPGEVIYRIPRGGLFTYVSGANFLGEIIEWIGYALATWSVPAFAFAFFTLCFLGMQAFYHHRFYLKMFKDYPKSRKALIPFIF
Assay: Inhibitory activity against Steroid 5-alpha-reductase in prostates from male rats
Type: tissue-based, Prostate gland
Quantity name: IC50 (nM)

>>> assay_value("COc1ccc(C(c2ccc(OC)cc2)n2ccc3cc(/C(C)=C/C(=O)Nc4ccccc4OCCCC(=O)O)ccc32)cc1")
9.8
>>> assay_value("CCC(C)n1ccc2cc(/C(C)=C/C(=O)Nc3ccccc3OCCCC(=O)O)ccc21 (stereo not given)")
67
>>> assay_value("C/C(=C\\C(=O)Nc1ccccc1OCCCC(=O)O)c1ccc2c(ccn2Cc2ccc(F)cc2)c1")
97
>>> assay_value("C/C(=C\\C(=O)Nc1ccccc1OCCCC(=O)O)c1ccc2c(ccn2Cc2ccc(C)cc2)c1")
88
>>> assay_value("CCCC(c1ccccc1)n1ccc2cc(/C(C)=C/C(=O)Nc3ccccc3OCCCC(=O)O)ccc21 (stereo not given)")
9.1
